// data source = ChEMBL document CHEMBL3576773

- experiment.description: Metabolic stability in human liver microsomes measured after 1 hr in presence of NADPH generating system
- Type: ADME
- run.conditions: read-out: Stability
metric: remaining at 1 h (%)

{"molecule": "Nc1ncnc2c1c(-c1ccc(F)cc1)nn2CC(Cl)c1ccccc1 (stereo not given)", "remaining at 1 h (%)": 95.7}
{"molecule": "Nc1ncnc2c1c(-c1ccc(Cl)cc1)nn2CC(Cl)c1ccccc1 (stereo not given)", "remaining at 1 h (%)": 85.2}
{"molecule": "COc1ccc(-c2nn(CC(Cl)c3ccccc3)c3ncnc(N)c23)cc1 (stereo not given)", "remaining at 1 h (%)": 95.6}
{"molecule": "Cc1ccc(-c2nn(CC(Cl)c3ccccc3)c3ncnc(N)c23)cc1 (stereo not given)", "remaining at 1 h (%)": 90}
{"molecule": "Nc1ncnc2c1c(-c1ccccc1)nn2CC(Cl)c1ccccc1 (stereo not given)", "remaining at 1 h (%)": 78.9}

----------
- measured.on: Tyrosine-protein kinase Fyn (Homo sapiens, UniProt P06241)
- Sequence (P06241 whole entry): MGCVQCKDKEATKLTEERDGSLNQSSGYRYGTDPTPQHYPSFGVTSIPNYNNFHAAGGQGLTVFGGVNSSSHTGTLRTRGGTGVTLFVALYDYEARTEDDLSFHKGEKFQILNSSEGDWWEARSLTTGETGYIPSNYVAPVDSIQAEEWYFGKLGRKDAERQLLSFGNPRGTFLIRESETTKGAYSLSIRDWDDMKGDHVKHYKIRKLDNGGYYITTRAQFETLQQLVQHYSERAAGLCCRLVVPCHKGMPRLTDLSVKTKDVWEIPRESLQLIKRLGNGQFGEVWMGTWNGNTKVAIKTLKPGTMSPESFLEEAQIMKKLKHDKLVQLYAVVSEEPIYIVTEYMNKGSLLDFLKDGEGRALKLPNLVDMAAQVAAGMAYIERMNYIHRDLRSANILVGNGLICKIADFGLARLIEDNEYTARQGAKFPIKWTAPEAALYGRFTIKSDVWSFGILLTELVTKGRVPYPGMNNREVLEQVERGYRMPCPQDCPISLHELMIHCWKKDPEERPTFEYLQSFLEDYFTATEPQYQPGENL
- experiment.description: Inhibition of human recombinant full-length Fyn using Src substrate peptide after 15 mins incubation by MicroBeta liquid scintillation counting analysis
- run.conditions: read-out: Ki
metric: Ki (µM)

The examples below pair each entry with its known result.
{"compound": "CC(Cn1nc(-c2ccc(Cl)cc2)c2c(N)ncnc21)c1ccccc1 (configuration not stated)", "unit.descriptor": "µM", "Ki": 0.78}
{"compound": "CCOc1ccc(-c2[nH]ncc2CN2CCN(S(=O)(=O)N3CCCC3)CC2)cc1", "unit.descriptor": "µM", "Ki": 2.25}
{"compound": "CNc1nc(SC)nc2c1c(-c1ccccc1)nn2CCc1ccccc1", "unit.descriptor": "µM", "Ki": 10}
{"compound": "COC(Cn1nc(-c2ccccc2)c2c(N)nc(SC)nc21)c1ccccc1 (configuration not stated)", "unit.descriptor": "µM", "Ki": 10}
{"compound": "CCc1ccc2[nH]c(=O)c(CN(Cc3ccc4c(c3)OCO4)C(=O)Nc3ccc(F)cc3)cc2c1", "unit.descriptor": "µM", "Ki": 2.1}

(A) CC(=O)c1ccc(-c2nn(CC(C)c3ccccc3)c3ncnc(N)c23)cc1 (configuration not stated)
(B) Nc1ncnc2c1c(-c1ccccc1)nn2CC(Cl)c1ccccc1 (configuration not stated)
Problem: Which of the two items, A and B , has the greater recorded Ki? Choose, then provide that item's label.
Result: A

----------
- System: MDA-MB-231
- experiment.description: Anticancer activity against human MDA-MB-231 cells assessed as cell growth inhibition after 20 to 70 hrs by Real-time RTCA iCELLgence system
- Type: functional, cell-based
pIC50: −log10 of the molar value.
metric: pIC50

(1) Nc1ncnc2c1c(-c1ccc(Cl)cc1)nn2CC(Cl)c1ccccc1 (configuration not stated)
(2) Cc1ccc(-c2nn(CC(Cl)c3ccccc3)c3ncnc(N)c23)cc1 (configuration not stated)
Problem: Task for the reader: decide whether 1 or 2 has the larger pIC50. State the label of the item chosen.
Result: 1
(1: 5.43, 2: 5.08)
